These data points were gathered from the MegaScale stability set (Tsuboyama et al. 2023).

B1: HHH_rd1_0493 (parent)
chain: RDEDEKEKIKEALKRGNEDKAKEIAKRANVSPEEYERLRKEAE

variants of: B1; assay: folding stability dG (cDNA display proteolysis); higher = more stable; details: PBS, room temperature
Category scheme (folding stability dG): class A: < 2 kcal/mol; class B: ≥ 2 kcal/mol and < 3 kcal/mol; class C: ≥ 3 kcal/mol

Query :: For "K14F" , which folding stability dG bin applies?
Result :: class A

Query :: State the class of the variant shown: "K22A"
Result :: class B

Query :: Entry "E33L" belongs to which category?
Result :: class B

Query :: Exam item: assign "L13D" to the correct category.
Result :: class A

Query :: Place this variant in its band: "K20G"
Result :: class B

Query :: Consider "E41V" . To which folding stability dG class does it belong?
Result :: class B

Query :: Category of "L13T" , please.
Result :: class A
